System: Staphylococcus aureus
Assay: Antimicrobial activity against methicillin-susceptible Staphylococcus aureus ATCC 29213
Assay type: functional
For each of the compounds below, state its MBC50.
Answers are plain numbers, in µg/mL.

- compound: "CC(=O)NC[C@H]1CN(c2ccc(N3CCOCC3)c(F)c2)C(=O)O1 [LINEZOLID]"
  MBC50 [µg/mL]: 1

# per-item lookup of MBC50; items listed below
1. CCCCCCCCCCCCCCCC(=O)N[C@@H](CCCCN)C(=O)N[C@@H](CCCCN)C(N)=O
2. CC[C@H]1OC(=O)[C@H](C)[C@@H](O[C@H]2C[C@@](C)(OC)[C@@H](O)[C@H](C)O2)[C@H](C)[C@@H](O[C@@H]2O[C@H](C)C[C@H](N(C)C)[C@H]2O)[C@](C)(O)C[C@@H](C)C(=O)[C@H](C)[C@@H](O)[C@]1(C)O [ERYTHROMYCIN]
3. C[C@H]1c2cccc(O)c2C(=O)C2=C(O)[C@]3(O)C(=O)C(C(N)=O)=C(O)[C@@H](N(C)C)[C@@H]3[C@@H](O)[C@@H]21.O [DOXYCYCLINE]
4. CCCCCCCCCCCCCCCC(=O)N[C@@H](CCCCN)C(=O)N[C@@H](CCCCN)C(=O)O

(A)
1: 8; 2: 16; 3: 8; 4: 8

----------
Tested on: Enterococcus faecalis
Assay: Antimicrobial activity against vancomycin-susceptible Enterococcus faecalis ATCC 29212
Assay type: functional
For each of the compounds below, state its MBC90.
Numbers only, in µg/mL.

Solved cases (6 shown):
- compound: "CC(=O)NC[C@H]1CN(c2ccc(N3CCOCC3)c(F)c2)C(=O)O1"
  assayed-system: "Enterococcus faecalis"
  unit-of-measure: "µg/mL"
  MBC90: 4
- compound: "CCCCCCCCCCCCCCCC(=O)N[C@@H](CCCCN)C(=O)N[C@@H](CCCCN)C(=O)O"
  assayed-system: "Enterococcus faecalis"
  unit-of-measure: "µg/mL"
  MBC90: 8
- compound: "C[C@H]1c2cccc(O)c2C(=O)C2=C(O)[C@]3(O)C(=O)C(C(N)=O)=C(O)[C@@H](N(C)C)[C@@H]3[C@@H](O)[C@@H]21.O"
  assayed-system: "Enterococcus faecalis"
  unit-of-measure: "µg/mL"
  MBC90: 64
- compound: "CN[C@H](CC(C)C)C(=O)N[C@H]1C(=O)N[C@@H](CC(N)=O)C(=O)N[C@H]2C(=O)N[C@H]3C(=O)N[C@H](C(=O)N[C@H](C(=O)O)c4cc(O)cc(O)c4-c4cc3ccc4O)[C@H](O)c3ccc(c(Cl)c3)Oc3cc2cc(c3O[C@@H]2O[C@H](CO)[C@@H](O)[C@H](O)[C@H]2O[C@H]2C[C@](C)(N)[C@H](O)[C@H](C)O2)Oc2ccc(cc2Cl)[C@H]1O"
  assayed-system: "Enterococcus faecalis"
  unit-of-measure: "µg/mL"
  MBC90: 4
- compound: "CCCCCCCCCCCCCCCC(=O)N[C@@H](CCCCN)C(=O)N[C@@H](CCCCN)C(N)=O"
  assayed-system: "Enterococcus faecalis"
  unit-of-measure: "µg/mL"
  MBC90: 8
- compound: "C[C@@H](O)[C@H]1C(=O)N2C(C(=O)O)=C(SCCNC=N)C[C@H]12 [IMIPENEM ANHYDROUS]"
  assayed-system: "Enterococcus faecalis"
  unit-of-measure: "µg/mL"
  MBC90: 64

Here's the next entry for you.
(Q) Please give the measured MBC90 for this compound: CC1(C)S[C@@H]2[C@H](NC(=O)[C@H](N)c3ccc(O)cc3)C(=O)N2[C@H]1C(=O)O
(A) 64

----------
Tested on: Enterococcus faecalis
Assay: Antimicrobial activity against vancomycin-susceptible Enterococcus faecalis ATCC 29212
Type: functional
Conditions: Enterococcus faecalis, ATCC 29212
outcome-measure: MIC50 (µg/mL)
One number for each entry, in µg/mL.

# per-item lookup of MIC50; items listed below
1. CC[C@H]1OC(=O)[C@H](C)[C@@H](O[C@H]2C[C@@](C)(OC)[C@@H](O)[C@H](C)O2)[C@H](C)[C@@H](O[C@@H]2O[C@H](C)C[C@H](N(C)C)[C@H]2O)[C@](C)(O)C[C@@H](C)C(=O)[C@H](C)[C@@H](O)[C@]1(C)O
2. CN[C@H](CC(C)C)C(=O)N[C@H]1C(=O)N[C@@H](CC(N)=O)C(=O)N[C@H]2C(=O)N[C@H]3C(=O)N[C@H](C(=O)N[C@H](C(=O)O)c4cc(O)cc(O)c4-c4cc3ccc4O)[C@H](O)c3ccc(c(Cl)c3)Oc3cc2cc(c3O[C@@H]2O[C@H](CO)[C@@H](O)[C@H](O)[C@H]2O[C@H]2C[C@](C)(N)[C@H](O)[C@H](C)O2)Oc2ccc(cc2Cl)[C@H]1O

(A)
8
1

# per-item lookup of MIC50; items listed below
1. CC1(C)S[C@@H]2[C@H](NC(=O)[C@H](N)c3ccc(O)cc3)C(=O)N2[C@H]1C(=O)O
2. CCCCCCCCCCCCCCCC(=O)N[C@@H](CCCCN)C(=O)N[C@@H](CCCCN)C(=O)O

(A)
1: 4; 2: 2

----------
Test system: Enterococcus faecalis
Assay: Antimicrobial activity against vancomycin-susceptible Enterococcus faecalis ATCC 29212
Format: functional
Conditions: Enterococcus faecalis, ATCC 29212
outcome-measure: MIC50

- compound: "CC(=O)NC[C@H]1CN(c2ccc(N3CCOCC3)c(F)c2)C(=O)O1 [LINEZOLID]"
  assayed-system: "Enterococcus faecalis"
  observed-result: "1 µg/mL"

# per-item lookup of MIC50; items listed below
1. C[C@H]1c2cccc(O)c2C(=O)C2=C(O)[C@]3(O)C(=O)C(C(N)=O)=C(O)[C@@H](N(C)C)[C@@H]3[C@@H](O)[C@@H]21.O [DOXYCYCLINE]
2. C[C@@H](O)[C@H]1C(=O)N2C(C(=O)O)=C(SCCNC=N)C[C@H]12 [IMIPENEM ANHYDROUS]
3. CCCCCCCCCCCCCCCC(=O)N[C@@H](CCCCN)C(=O)N[C@@H](CCCCN)C(N)=O

(A)
["4 µg/mL", "4 µg/mL", "2 µg/mL"]

----------
System: Streptococcus pyogenes
Test: Antimicrobial activity against Streptococcus pyogenes ATCC 19615
Assay type: functional
For each of the compounds below, state its MBC50.
Answers are plain numbers, in µg/mL.

Solved cases (3 shown):
- compound: "CC[C@H]1OC(=O)[C@H](C)[C@@H](O[C@H]2C[C@@](C)(OC)[C@@H](O)[C@H](C)O2)[C@H](C)[C@@H](O[C@@H]2O[C@H](C)C[C@H](N(C)C)[C@H]2O)[C@](C)(O)C[C@@H](C)C(=O)[C@H](C)[C@@H](O)[C@]1(C)O [ERYTHROMYCIN]"
  MBC50, µg/mL: 8
- compound: "C[C@@H](O)[C@H]1C(=O)N2C(C(=O)O)=C(SCCNC=N)C[C@H]12 [IMIPENEM ANHYDROUS]"
  MBC50, µg/mL: 1
- compound: "CC(=O)NC[C@H]1CN(c2ccc(N3CCOCC3)c(F)c2)C(=O)O1 [LINEZOLID]"
  MBC50, µg/mL: 1

# per-item lookup of MBC50; items listed below
1. CCCCCCCCCCCCCCCC(=O)N[C@@H](CCCCN)C(=O)N[C@@H](CCCCN)C(=O)O
2. CN[C@H](CC(C)C)C(=O)N[C@H]1C(=O)N[C@@H](CC(N)=O)C(=O)N[C@H]2C(=O)N[C@H]3C(=O)N[C@H](C(=O)N[C@H](C(=O)O)c4cc(O)cc(O)c4-c4cc3ccc4O)[C@H](O)c3ccc(c(Cl)c3)Oc3cc2cc(c3O[C@@H]2O[C@H](CO)[C@@H](O)[C@H](O)[C@H]2O[C@H]2C[C@](C)(N)[C@H](O)[C@H](C)O2)Oc2ccc(cc2Cl)[C@H]1O [VANCOMYCIN]

(A)
[2, 1]

----------
System: Staphylococcus aureus
Assay: Antimicrobial activity against methicillin-susceptible Staphylococcus aureus ATCC 29213
Type: functional
Settings: Staphylococcus aureus, ATCC 29213
outcome-measure: MIC50

Solved cases (2 shown):
- compound: "CC1(C)S[C@@H]2[C@H](NC(=O)[C@H](N)c3ccc(O)cc3)C(=O)N2[C@H]1C(=O)O [AMOXICILLIN]"
  observed-result: "1 µg/mL"
- compound: "C[C@H]1c2cccc(O)c2C(=O)C2=C(O)[C@]3(O)C(=O)C(C(N)=O)=C(O)[C@@H](N(C)C)[C@@H]3[C@@H](O)[C@@H]21.O [DOXYCYCLINE]"
  observed-result: "2 µg/mL"

Here's the next entry for you.
(Q) Query for Staphylococcus aureus: what MIC50 does the record show for C[C@@H](O)[C@H]1C(=O)N2C(C(=O)O)=C(SCCNC=N)C[C@H]12 [IMIPENEM ANHYDROUS] ?
(A) 0.5 µg/mL
